# SYSTEM_TESTED: Galanin receptor type 2 (Homo sapiens)
# ASSAY_REMARKS: GALR2 receptor agonists, primary screen, cell-based (AID 803);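 note: 0% = vehicle buffer wells and 100% = reference agonist at full effect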
# MEASUREMENT_PARAMETERS: GALR2-expressing cells, agonist activation read-out; at 5.6 µM; stronger effect = higher value
Out of some 140,000 compounds screened, about 680 (0.49%) were called active. This is one part of a sample in which actives are shown more often than they occur.
PROPERTY_NAME: activation (%)
Answer in %, number only, no unit symbol.

OC(COCC1COc2ccccc2O1)CN1CCN(c2ccc(F)cc2)CC1 (centres undefined) = -0.37

Query: Request: activation, test system Galanin receptor type 2 (Homo sapiens), entry O=c1cc(CO)oc(C(Nc2cccc([N+](=O)[O-])c2)c2ccccn2)c1O (centres undefined)
Reply: 0.7

Query: Request: activation, test system Galanin receptor type 2 (Homo sapiens), entry `O=C(Nc1ccccc1F)c1ccccc1-c1ccccc1`
Reply: -0.61

Query: Request: activation, test system Galanin receptor type 2 (Homo sapiens), entry `CCCn1c(=O)c2c(C(F)(F)F)cc(-c3cccs3)nc2n(CCC)c1=O`
Reply: 6.87
